# measured-on: recombinant PRL-1 (Homo sapiens, UniProt Q93096)
# Construct: 6xHis (N, cleaved yes); made in house; host or cells: E. coli One Shot BL21 Star
# Sequence (Q93096 1-173): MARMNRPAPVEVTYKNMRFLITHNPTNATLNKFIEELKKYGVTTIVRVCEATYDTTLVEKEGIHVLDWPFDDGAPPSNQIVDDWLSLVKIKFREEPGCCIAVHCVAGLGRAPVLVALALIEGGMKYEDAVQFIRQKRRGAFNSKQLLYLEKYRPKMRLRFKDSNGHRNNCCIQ
# test-description: In vitro phosphatase assay (DiFMUP hydrolysis), PRL-1; further: test concentration or dose not given here
# Format: biochemical
# condition: FDA-approved drug screen; activity compared to DMSO
measured-parameter: % Phosphatase Activity (compared to DMSO) PRL-1
Field: value (include unit after the number)

{"compound": "C[C@]1(Cn2ccnn2)[C@H](C(=O)O)N2C(=O)C[C@H]2S1(=O)=O", "reported-result": "102%"}

[ask] Tell me the measured % Phosphatase Activity (compared to DMSO) PRL-1 of CCCCNC(=O)NS(=O)(=O)c1ccc(C)cc1 [Tolbutamide] , please.
[reply] 104%

[ask] Bench note: what % Phosphatase Activity (compared to DMSO) PRL-1 did COc1cnc(NS(=O)(=O)c2ccc(N)cc2)nc1 show?
[reply] 106%

[ask] Which % Phosphatase Activity (compared to DMSO) PRL-1 value belongs to CC(=O)O[C@H]1C[C@@H]2CC[C@@H]3[C@H](CC[C@@]4(C)[C@H]3C[C@H]([N+]3(C)CCCCC3)[C@@H]4OC(C)=O)[C@@]2(C)C[C@@H]1N1CCCCC1 [Vecuronium Bromide] ?
[reply] 103%

[ask] Please report the recorded % Phosphatase Activity (compared to DMSO) PRL-1 for CCN(CC)CCNC(=O)c1c(C)[nH]c(/C=C2\C(=O)Nc3ccc(F)cc32)c1C [Sunitinib Malate] .
[reply] 80%

[ask] I'd like to know its % Phosphatase Activity (compared to DMSO) PRL-1. The compound in question is O=C(O)c1cc(/N=N/c2ccc(S(=O)(=O)Nc3ccccn3)cc2)ccc1O
[reply] 67%

====

# measured-on: recombinant PRL-2 (Homo sapiens)
# Construct: 6xHis (N, cleaved yes); made in house; host or cells: E. coli One Shot BL21 Star
# Sequence (Q12974 1-167): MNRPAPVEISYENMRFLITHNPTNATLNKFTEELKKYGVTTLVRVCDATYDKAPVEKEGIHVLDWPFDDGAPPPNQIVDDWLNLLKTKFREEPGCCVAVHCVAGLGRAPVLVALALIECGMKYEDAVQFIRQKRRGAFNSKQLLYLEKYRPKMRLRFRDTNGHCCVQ
# test-description: In vitro phosphatase assay (DiFMUP hydrolysis), PRL-2;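 further: PRL-2 activity read as DiFMUP hydrolysis after 20 min at room temperature with drug, enzyme first pre-reduced at 4 °C for 20 min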
# Type: biochemical
# condition: FDA-approved drug screen; compared to DMSO
Counter-ions that a name gives are not always drawn.
measured-parameter: % Phosphatase Activity (compared to DMSO) PRL-2 (%)
API: value field is a number in %; no unit string.

{"molecule": "O[C@H]1[C@H](O)[C@@H](O)[C@H](O)[C@@H](O)[C@H]1O", "measured-on": "recombinant PRL-2 (Homo sapiens)", "reported-result": 112}
{"molecule": "CC(C)C(=O)OCC(=O)[C@@]12O[C@H](C3CCCCC3)O[C@@H]1C[C@H]1[C@@H]3CCC4=CC(=O)C=C[C@]4(C)[C@H]3[C@@H](O)C[C@@]12C [Ciclesonide]", "measured-on": "recombinant PRL-2 (Homo sapiens)", "reported-result": 108}
{"molecule": "CCN(CC)CCOCCOC(=O)C(CC)(CC)c1ccccc1.O=C(O)CC(O)(CC(=O)O)C(=O)O [Oxeladin Citrate]", "measured-on": "recombinant PRL-2 (Homo sapiens)", "reported-result": 88}
{"molecule": "Oc1ccc(OCc2ccccc2)cc1", "measured-on": "recombinant PRL-2 (Homo sapiens)", "reported-result": 112}
{"molecule": "C[C@]12CCC(=O)C=C1[C@@H]1C[C@@H]1[C@H]1[C@@H]3[C@@H]4C[C@@H]4[C@@]4(CCC(=O)O4)[C@@]3(C)CC[C@@H]12", "measured-on": "recombinant PRL-2 (Homo sapiens)", "reported-result": 89}
{"molecule": "CC(=O)Oc1ccccc1C(=O)O", "measured-on": "recombinant PRL-2 (Homo sapiens)", "reported-result": 110}
{"molecule": "CNNCc1ccc(C(=O)NC(C)C)cc1 [Procarbazine HCl]", "measured-on": "recombinant PRL-2 (Homo sapiens)", "reported-result": 90}
{"molecule": "CNC[C@H](O)c1cccc(O)c1 [Phenylephrine HCl]", "measured-on": "recombinant PRL-2 (Homo sapiens)", "reported-result": 98}
{"molecule": "CCOC(=O)c1ccc(O)cc1", "measured-on": "recombinant PRL-2 (Homo sapiens)", "reported-result": 100}
{"molecule": "Cl.Cn1c(CCCC(=O)O)nc2cc(N(CCCl)CCCl)ccc21 [Bendamustine HCl]", "measured-on": "recombinant PRL-2 (Homo sapiens)", "reported-result": 128}

[ask] Tell me the measured % Phosphatase Activity (compared to DMSO) PRL-2 of O=C(O)CCC(=O)c1ccc(-c2ccccc2)cc1 , please.
[reply] 103

[ask] Entry C=C1C[C@@H]2[C@H](CC[C@]3(C)C(=O)CC[C@@H]23)[C@@]2(C)C=CC(=O)C=C12 : reported % Phosphatase Activity (compared to DMSO) PRL-2 = ?
[reply] 116

[ask] // returns reported % Phosphatase Activity (compared to DMSO) PRL-2 for input Cc1ccc(C(=O)N(CCCN)[C@@H](c2nc3cc(Cl)ccc3c(=O)n2Cc2ccccc2)C(C)C)cc1 [Ispinesib (SB-715992)]
[reply] 108

[ask] What does the record list as % Phosphatase Activity (compared to DMSO) PRL-2 for COc1cc2nccc(Oc3ccc(NC(=O)C4(C(=O)Nc5ccc(F)cc5)CC4)cc3)c2cc1OC [Cabozantinib (XL184, BMS-907351)] ?
[reply] 96

[ask] Please look up its % Phosphatase Activity (compared to DMSO) PRL-2: CC(C(=O)O)c1ccc2c(c1)[nH]c1ccc(Cl)cc12 (centres unmarked)
[reply] 94

[ask] Which % Phosphatase Activity (compared to DMSO) PRL-2 is listed for CCn1cc(C(=O)O)c(=O)c2cc(F)c(N3CCNC(C)C3)c(F)c21 (centres unmarked) [Lomefloxacin HCl] ?
[reply] 121

[ask] # lookup: % Phosphatase Activity (compared to DMSO) PRL-2 of O=c1[nH]c(=O)c2ccccc2o1
[reply] 95

Provenance of the data: paper PMC8119466
